All values here come from the supplement of paper PMC11061612.

- Test system: SU-DHL-6 (B-Cell Non-Hodgkin's Lymphoma);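 note: after 72 h of two-drug dosing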
- test-summary: Bliss excess, mean over the matrix (fraction); higher = more synergy
A collection of molecules and their measured Bliss excess
Respond using a number only.

>  <molecule>
Cc1cc2ncnn2cc1Nc1ncc2c(n1)n(C1CCOCC1)c(=O)n2C [AZD7648] + O=C(c1cc(Cc2n[nH]c(=O)c3ccccc23)ccc1F)N1CCN(C(=O)C2CC2)CC1 [Olaparib] (first compound max 10 µM, 7x7, partner max 10 µM)

>  <Bliss excess>
-0.0263

$$$$
>  <molecule>
Cc1c2c(nn1C)CSCc1cc(n(C)n1)CSc1cc(c3ccccc3c1)OCCCc1c(C(=O)O)n(C)c3c-2c(Cl)ccc13 [AZD5991] + CS(=O)(=O)CCNCc1ccc(-c2ccc3ncnc(Nc4ccc(OCc5cccc(F)c5)c(Cl)c4)c3c2)o1 [Lapatinib] (first compound max 1 µM, 7x7, partner max 10 µM)

>  <Bliss excess>
0.0085

$$$$
>  <molecule>
Cc1c2c(nn1C)CSCc1cc(n(C)n1)CSc1cc(c3ccccc3c1)OCCCc1c(C(=O)O)n(C)c3c-2c(Cl)ccc13 [AZD5991] + C[C@@H](Nc1cc(F)cc(F)c1)c1cc(C(=O)N(C)C)cc2c(=O)cc(N3CCOCC3)oc12 [AZD8186] (first compound max 1 µM, 7x7, partner max 3 µM)

>  <Bliss excess>
-0.002

$$$$
>  <molecule>
CC1(C)CCC(CN2CCN(c3ccc(C(=O)NS(=O)(=O)c4ccc(NCC5CCOCC5)c([N+](=O)[O-])c4)c(Oc4cnc5[nH]ccc5c4)c3)CC2)=C(c2ccc(Cl)cc2)C1 [Venetoclax] + C=CCn1c(=O)c2cnc(Nc3ccc(N4CCN(C)CC4)cc3)nc2n1-c1cccc(C(C)(C)O)n1 [AZD1775] (first compound max 1 µM, partner max 1 µM)

>  <Bliss excess>
0.0009

$$$$
>  <molecule>
COc1nnc2ccc(N3CCC(c4ccc(OCCN5CCN(C)C(=O)[C@H]5C)cc4)CC3)nn12 [AZD5153] + Cn1cnc2c(F)c(Nc3ccc(Br)cc3Cl)c(C(=O)NOCCO)cc21 [Selumetinib] (first compound max 1 µM, 7x7, partner max 10 µM)

>  <Bliss excess>
-0.0278

$$$$

Data request, read-out Bliss excess, for Cc1c2c(nn1C)CSCc1cc(n(C)n1)CSc1cc(c3ccccc3c1)OCCCc1c(C(=O)O)n(C)c3c-2c(Cl)ccc13 [AZD5991] + CCN(CCO)CCCOc1ccc2c(Nc3cc(CC(=O)Nc4cccc(F)c4)[nH]n3)ncnc2c1 [AZD2811] (first compound max 1 µM, 7x7, partner max 1 µM)
0.0379

Fill in: Bliss excess of NC1(C(=O)N[C@@H](CCO)c2ccc(Cl)cc2)CCN(c2ncnc3[nH]ccc23)CC1 [Capivasertib] + CCN(CCO)CCCOc1ccc2c(Nc3cc(CC(=O)Nc4cccc(F)c4)[nH]n3)ncnc2c1 [AZD2811] (first compound max 10 µM, 7x7, partner max 1 µM) is ___
0.0406

Could you share which Bliss excess value was measured for COc1cccc2c1C(=O)c1c(O)c3c(c(O)c1C2=O)C[C@@](O)(C(=O)CO)C[C@@H]3O[C@H]1C[C@H](N)[C@H](O)[C@H](C)O1 [Doxorubicin] + Cc1cc2ncnn2cc1Nc1ncc2c(n1)n(C1CCOCC1)c(=O)n2C [AZD7648] (first compound max 1 µM, 7x7, partner max 10 µM) ?
0.0697

Quick check: Bliss excess of C=CCn1c(=O)c2cnc(Nc3ccc(N4CCN(C)CC4)cc3)nc2n1-c1cccc(C(C)(C)O)n1 [AZD1775] + Nc1ccn([C@@H]2O[C@H](CO)[C@@H](O)C2(F)F)c(=O)n1 [Gemcitabine] (first compound max 1 µM, partner max 0.3 µM) ?
0.0556

Which Bliss excess is listed for Cc1cc2ncnn2cc1Nc1ncc2c(n1)n(C1CCOCC1)c(=O)n2C [AZD7648] + C[C@@H]1COCCN1C2=NC(=NC(=C2)C3(CC3)[S@](=N)(=O)C)C4=C5C=CNC5=NC=C4 [AZD6738] (first compound max 10 µM, 7x7, partner max 10 µM) ?
-0.0598
